- ASSAYED_SYSTEM: D(1A) dopamine receptor (Bos taurus)
- Sequence (Q95136 whole entry): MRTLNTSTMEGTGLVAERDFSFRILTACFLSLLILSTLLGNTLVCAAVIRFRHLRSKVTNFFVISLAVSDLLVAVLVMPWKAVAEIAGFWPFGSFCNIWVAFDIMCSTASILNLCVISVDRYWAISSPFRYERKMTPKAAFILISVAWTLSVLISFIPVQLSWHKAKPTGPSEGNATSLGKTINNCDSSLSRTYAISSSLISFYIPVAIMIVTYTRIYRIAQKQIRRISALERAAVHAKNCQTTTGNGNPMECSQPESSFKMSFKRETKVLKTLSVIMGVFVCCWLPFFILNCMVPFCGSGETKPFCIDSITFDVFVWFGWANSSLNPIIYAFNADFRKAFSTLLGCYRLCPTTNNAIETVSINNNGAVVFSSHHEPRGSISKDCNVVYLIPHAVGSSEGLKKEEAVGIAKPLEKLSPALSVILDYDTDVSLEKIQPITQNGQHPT
Lab note: anything with Ki below 400 nM is marked satisfied; values at 400 nM or higher are marked not satisfied.

MOLECULE | QUALITATIVE_LABEL
CN(C)CCCSc1ccccc1NC(=O)/C=C/c1ccccc1 | not satisfied
O=c1[nH]c2ccccc2n1CCCN1CCC(n2c(=O)[nH]c3cc(Cl)ccc32)CC1 | not satisfied
CN1CCN2c3ccccc3Cc3ccccc3[C@H]2C1 [MIANSERIN (+)] | satisfied
C=CCN1CC[C@]23c4c5ccc(O)c4O[C@H]2C(=O)CC[C@@]3(O)[C@H]1C5 | not satisfied
O=C(CCCN1CCC(O)(c2ccc(Cl)cc2)CC1)c1ccc(F)cc1 | satisfied
CN1[C@@H]2CC[C@H]1CC(OC(=O)[C@H](CO)c1ccccc1)C2 (stereo partly drawn) | not satisfied
CC[C@@H](CO)NC(=O)[C@@H]1C=C2c3cccc4c3c(cn4C)C[C@H]2N(C)C1 | not satisfied
